System: Staphylococcus aureus
Experiment: Antibacterial activity against vancomycin-intermediate Staphylococcus aureus Mu50 incubated for 16 to 24 hrs by broth microdilution assay
Type: functional
Settings: time 16-24 hrs
The label is Y for MIC below 1 µg/mL and N for MIC equal to or exceeding 1 µg/mL.

compound: CN[C@H](CC(C)C)C(=O)N[C@H]1C(=O)N[C@@H](CC(N)=O)C(=O)N[C@H]2C(=O)N[C@H]3C(=O)N[C@H](C(=O)N[C@H](C(=O)O)c4cc(O)c(CNCCC[S+](C)CC(O)COc5ccccc5)c(O)c4-c4cc3ccc4O)[C@H](O)c3ccc(c(Cl)c3)Oc3cc2cc(c3O[C@@H]2O[C@H](CO)[C@@H](O)[C@H](O)[C@H]2O[C@H]2C[C@](C)(N)[C@H](O)[C@H](C)O2)Oc2ccc(cc2Cl)[C@H]1O.O=C([O-])C(F)(F)F (some centres undefined)
classification: N

Item CC(C)C[C@H](C(=O)N[C@H]1C(=O)N[C@@H](CC(N)=O)C(=O)N[C@H]2C(=O)N[C@H]3C(=O)N[C@H](C(=O)N[C@H](C(=O)O)c4cc(O)cc(O)c4-c4cc3ccc4O)[C@H](O)c3ccc(c(Cl)c3)Oc3cc2cc(c3O[C@@H]2O[C@H](CO)[C@@H](O)[C@H](O)[C@H]2O[C@H]2C[C@](C)(N)[C@H](O)[C@H](C)O2)Oc2ccc(cc2Cl)[C@H]1O)N(C)CCC[S+](C)C[C@@H](O)COc1ccccc1.O=C([O-])C(F)(F)F (some centres undefined) : MIC beneath 1 µg/mL, strictly?
N

Lab note: MIC threshold 1 µg/mL. Does this compound come in strictly under it? CN[C@H](CC(C)C)C(=O)N[C@H]1C(=O)N[C@@H](CC(N)=O)C(=O)N[C@H]2C(=O)N[C@H]3C(=O)N[C@H](C(=O)N[C@H](C(=O)O)c4cc(O)c(CNCCC[S+](C)CC(O)COc5ccc(-c6ccc(C(F)(F)F)cc6)cc5)c(O)c4-c4cc3ccc4O)[C@H](O)c3ccc(c(Cl)c3)Oc3cc2cc(c3O[C@@H]2O[C@H](CO)[C@@H](O)[C@H](O)[C@H]2O[C@H]2C[C@](C)(N)[C@H](O)[C@H](C)O2)Oc2ccc(cc2Cl)[C@H]1O.O=C([O-])C(F)(F)F (some centres undefined)
Y

Find out if reported MIC for CN[C@H](CC(C)C)C(=O)N[C@H]1C(=O)N[C@@H](CC(N)=O)C(=O)N[C@H]2C(=O)N[C@H]3C(=O)N[C@H](C(=O)N[C@H](C(=O)O)c4cc(O)c(CNCCC[S+](C)C[C@H](O)COc5ccccc5)c(O)c4-c4cc3ccc4O)[C@H](O)c3ccc(c(Cl)c3)Oc3cc2cc(c3O[C@@H]2O[C@H](CO)[C@@H](O)[C@H](O)[C@H]2O[C@H]2C[C@](C)(N)[C@H](O)[C@H](C)O2)Oc2ccc(cc2Cl)[C@H]1O.O=C([O-])C(F)(F)F (some centres undefined) is less than 1 µg/mL
N

Confirm or reject: MIC of CN[C@H](CC(C)C)C(=O)N[C@H]1C(=O)N[C@@H](CC(N)=O)C(=O)N[C@H]2C(=O)N[C@H]3C(=O)N[C@H](C(=O)N[C@H](C(=O)NCCC[S+](C)CC(O)COc4ccc(-c5ccc(C(F)(F)F)cc5)cc4)c4cc(O)cc(O)c4-c4cc3ccc4O)[C@H](O)c3ccc(c(Cl)c3)Oc3cc2cc(c3O[C@@H]2O[C@H](CO)[C@@H](O)[C@H](O)[C@H]2O[C@H]2C[C@](C)(N)[C@H](O)[C@H](C)O2)Oc2ccc(cc2Cl)[C@H]1O.O=C([O-])C(F)(F)F (some centres undefined) lies strictly below 1 µg/mL
Y

Would you kindly verify if MIC of CN[C@H](CC(C)C)C(=O)N[C@H]1C(=O)N[C@@H](CC(N)=O)C(=O)N[C@H]2C(=O)N[C@H]3C(=O)N[C@H](C(=O)N[C@H](C(=O)NCCC[S+](C)C[C@@H](O)COc4ccccc4)c4cc(O)cc(O)c4-c4cc3ccc4O)[C@H](O)c3ccc(c(Cl)c3)Oc3cc2cc(c3O[C@@H]2O[C@H](CO)[C@@H](O)[C@H](O)[C@H]2O[C@H]2C[C@](C)(N)[C@H](O)[C@H](C)O2)Oc2ccc(cc2Cl)[C@H]1O.O=C([O-])C(F)(F)F (some centres undefined) is strictly less than 1 µg/mL?
N

###

Assay: Protein binding in plasma (unknown origin)
Assay type: ADME, cell-free
Conditions: read-out: PPB (converted)
measurement_name: fraction unbound
Form field (numeric): enter value without unit.

compound: CN[C@H](CC(C)C)C(=O)N[C@H]1C(=O)N[C@@H](CC(N)=O)C(=O)N[C@H]2C(=O)N[C@H]3C(=O)N[C@H](C(=O)N[C@H](C(=O)O)c4cc(O)cc(O)c4-c4cc3ccc4O)[C@H](O)c3ccc(c(Cl)c3)Oc3cc2cc(c3O[C@@H]2O[C@H](CO)[C@@H](O)[C@H](O)[C@H]2O[C@H]2C[C@](C)(N)[C@H](O)[C@H](C)O2)Oc2ccc(cc2Cl)[C@H]1O
measurement_name: fraction unbound
result: 0.9

State its fraction unbound for this compound: CN[C@H]1C(=O)N[C@@H]2Cc3ccc(cc3)Oc3cc4cc(c3O[C@@H]3O[C@H](C(=O)O)[C@@H](O)[C@H](O)[C@H]3NC(=O)CCCCCCCCC(C)C)Oc3ccc(cc3Cl)[C@@H](O)[C@@H]3NC(=O)[C@H](NC(=O)[C@@H]4NC(=O)[C@@H](NC2=O)c2cc(cc(O)c2Cl)Oc2cc1ccc2O)c1ccc(O)c(c1)-c1c(OC2OC(CO)C(O)C(O)C2O)cc(O)cc1[C@@H](C(=O)NCCCN(C)C)NC3=O (some centres undefined)
0.07

Respond only with fraction unbound recorded for CCCCCCCCCCNCCN[C@@]1(C)C[C@H](O[C@H]2[C@H](Oc3c4cc5cc3Oc3ccc(cc3Cl)[C@@H](O)[C@@H](NC(=O)[C@@H](CC(C)C)NC)C(=O)N[C@@H](CC(N)=O)C(=O)N[C@H]5C(=O)N[C@H]3C(=O)N[C@H](C(=O)N[C@H](C(=O)O)c5cc(O)c(CNCP(=O)(O)O)c(O)c5-c5cc3ccc5O)[C@H](O)c3ccc(c(Cl)c3)O4)O[C@H](CO)[C@@H](O)[C@@H]2O)O[C@@H](C)[C@H]1O
0.1

Quote fraction unbound reported for CN[C@H](CC(C)C)C(=O)N[C@H]1C(=O)N[C@@H](CC(N)=O)C(=O)N[C@H]2C(=O)N[C@H]3C(=O)N[C@H](C(=O)N[C@H](C(=O)O)c4cc(O)cc(O)c4-c4cc3ccc4O)[C@H](O[C@H]3C[C@](C)(N)[C@@H](O)[C@H](C)O3)c3ccc(c(Cl)c3)Oc3cc2cc(c3O[C@@H]2O[C@H](CO)[C@@H](O)[C@H](O)[C@H]2O[C@H]2C[C@](C)(NCc3ccc(-c4ccc(Cl)cc4)cc3)[C@@H](O)[C@H](C)O2)Oc2ccc(cc2Cl)[C@H]1O please.
0.14

###

System: Staphylococcus aureus
Assay: Antibacterial activity against vancomycin-intermediate Staphylococcus aureus Mu50 incubated for 16 to 24 hrs by broth microdilution assay
Assay type: functional
Details: time 16-24 hrs
Each entry below carries its reported MIC.
Your answer should be a plain number; it is taken to be in µg/mL.

compound: CN[C@H](CC(C)C)C(=O)N[C@H]1C(=O)N[C@@H](CC(N)=O)C(=O)N[C@H]2C(=O)N[C@H]3C(=O)N[C@H](C(=O)N[C@H](C(=O)O)c4cc(O)c(CNCCCSCC(O)COc5ccc(-c6ccc(C(F)(F)F)cc6)cc5)c(O)c4-c4cc3ccc4O)[C@H](O)c3ccc(c(Cl)c3)Oc3cc2cc(c3O[C@@H]2O[C@H](CO)[C@@H](O)[C@H](O)[C@H]2O[C@H]2C[C@](C)(N)[C@H](O)[C@H](C)O2)Oc2ccc(cc2Cl)[C@H]1O (stereo partly drawn)
subject_of_test: Staphylococcus aureus
MIC / µg/mL: 1
--
compound: CN[C@H](CC(C)C)C(=O)N[C@H]1C(=O)N[C@@H](CC(N)=O)C(=O)N[C@H]2C(=O)N[C@H]3C(=O)N[C@H](C(=O)N[C@H](C(=O)O)c4cc(O)cc(O)c4-c4cc3ccc4O)[C@H](O)c3ccc(c(Cl)c3)Oc3cc2cc(c3O[C@@H]2O[C@H](CO)[C@@H](O)[C@H](O)[C@H]2O[C@H]2C[C@](C)(NCCC[S+](C)C[C@@H](O)COc3ccccc3)[C@H](O)[C@H](C)O2)Oc2ccc(cc2Cl)[C@H]1O.O=C([O-])C(F)(F)F (stereo partly drawn)
subject_of_test: Staphylococcus aureus
MIC / µg/mL: 1

Please tell me the measured MIC for CN[C@H](CC(C)C)C(=O)N[C@H]1C(=O)N[C@@H](CC(N)=O)C(=O)N[C@H]2C(=O)N[C@H]3C(=O)N[C@H](C(=O)N[C@H](C(=O)NCCC[S+](C)CC(O)COc4ccc(-c5ccccc5)cc4)c4cc(O)cc(O)c4-c4cc3ccc4O)[C@H](O)c3ccc(c(Cl)c3)Oc3cc2cc(c3O[C@@H]2O[C@H](CO)[C@@H](O)[C@H](O)[C@H]2O[C@H]2C[C@](C)(N)[C@H](O)[C@H](C)O2)Oc2ccc(cc2Cl)[C@H]1O.O=C([O-])C(F)(F)F (stereo partly drawn) ; system: Staphylococcus aureus.
0.5
